B1: CPEB3 Ribozyme (parent)
chain: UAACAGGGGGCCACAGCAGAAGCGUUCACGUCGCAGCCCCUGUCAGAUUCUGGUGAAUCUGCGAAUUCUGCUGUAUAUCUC

# Variants of: B1
# assay.protocol: self-cleavage, relative activity (ratio to wild type); higher = more cleavage; in vitro, sequencing
I'd be grateful if you could share measured self-cleavage for these entries.

Query: Entry A57C U67C has what self-cleavage?
Result: 0.27

Query: Now this one: U25C C71U
Result: 0.1

Query: Now this one: C27U U51A
Result: 0.17

Query: Now this one: C4U G10A
Result: 0.63

Query: Now this one: A20C U54C
Result: 0.2

Query: Now this one: A64U U78A
Result: 0.49

Query: Now this one: G8A A56C
Result: 0.24

# credit: the RNAGym collection of RNA variant scans (doi:10.1093/nar/gkz1192)
